Test system: HT-29
Assay: Cytotoxicity against human HT-29 cells after 24 hrs by CellTiter-BlueCell viability assay
Format: functional, cell-based
Conditions: HT-29, 24 h
ENDPOINT: pIC50
// returns pIC50 (minus log10 of molar concentration), number only

Challenge: Test system HT-29; read-out pIC50; what value for CC/C(=C(\c1ccccc1)c1ccc(OCCN(C)C)cc1)c1ccccc1 [TAMOXIFEN] ?
Response given: 4.41
